Test system: HL-60 promyelocytic leukemia cells
Assay: Cytotoxicity in HL-60 cells
READOUT_TYPE: EC50 (µM)
Number in µM, nothing else.

Prompt: Item under review: 22-amino acid section of native ATF5 bZIP domain, LEGECQGLEARNRELKERAESV, and a 16-amino acid penetratin domain [precursor peptide] . Reported EC50?
Completion: 17.4

* * *

Test: Cytotoxicity in HL-60 cells
Description: We hypothesized that modifications designed to enhance electrostatic interactions between the peptide and C/EBPβ would increase potency. A panel of 46 rationally-designed peptides probing the molecular packing of non-leucine amino acids of the peptide antagonist with that of the C/EBPβ bZIP domain were synthesized and screened for cytotoxic activity.
Where no end group is shown, it is not given here.
READOUT_TYPE: EC50 (µM)
Number in µM, nothing else.

Prompt: Item under review: RQIKIWFQNRRMKWKKLEGRAQGLRAELRELEERAEAV [“winner” peptide] . Reported EC50?
Completion: 5.5

These measurements were taken from patent US20230218717A1.
